For each entry below, report its Mean % WT Binding value.
Target: human CD33 variant I47E (human, UniProt P20138 18-364)
Sequence (P20138 18-364 I47E limits assumed): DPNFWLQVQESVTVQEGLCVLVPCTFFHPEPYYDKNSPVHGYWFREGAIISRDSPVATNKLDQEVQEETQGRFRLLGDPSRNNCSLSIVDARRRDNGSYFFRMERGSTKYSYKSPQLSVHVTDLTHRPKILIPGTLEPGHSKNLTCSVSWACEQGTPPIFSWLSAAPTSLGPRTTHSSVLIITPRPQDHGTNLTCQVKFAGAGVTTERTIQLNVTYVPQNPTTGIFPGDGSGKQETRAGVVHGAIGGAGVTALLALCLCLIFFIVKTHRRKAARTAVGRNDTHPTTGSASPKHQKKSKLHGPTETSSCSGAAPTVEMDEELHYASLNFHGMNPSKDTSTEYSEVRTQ
Assay: flow cytometry, IgG on cells expressing the mutant

{"columns": ["BINDER", "Mean % WT Binding"],
 "data": [
  ["Refmab #4 (antibody, human IgG1, V domains shown, Tested in IgG format; human IgG1 Fc silent (PG-LALA)) VH: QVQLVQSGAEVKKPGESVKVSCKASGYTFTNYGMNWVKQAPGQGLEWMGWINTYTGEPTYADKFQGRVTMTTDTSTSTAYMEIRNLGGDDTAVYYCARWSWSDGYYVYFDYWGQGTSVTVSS VL: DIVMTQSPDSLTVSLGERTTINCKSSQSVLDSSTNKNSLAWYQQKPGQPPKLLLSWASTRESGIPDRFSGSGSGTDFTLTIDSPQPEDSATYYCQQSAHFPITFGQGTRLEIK", "54.8 % of WT"]
]}

Could you report Mean % WT Binding for every entry in the following list?
1. Refmab #2 (antibody, human IgG1, V domains shown, Tested in IgG format; human IgG1 Fc silent (PG-LALA)) VH: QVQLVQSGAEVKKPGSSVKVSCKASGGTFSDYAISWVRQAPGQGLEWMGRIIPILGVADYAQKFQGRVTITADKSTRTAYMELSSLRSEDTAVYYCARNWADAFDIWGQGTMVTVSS VL: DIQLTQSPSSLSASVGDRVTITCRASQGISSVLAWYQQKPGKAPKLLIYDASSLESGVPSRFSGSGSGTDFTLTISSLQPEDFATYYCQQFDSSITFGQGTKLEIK
2. Refmab #3 (antibody, human IgG1, V domains shown, Tested in IgG format; human IgG1 Fc silent (PG-LALA)) VH: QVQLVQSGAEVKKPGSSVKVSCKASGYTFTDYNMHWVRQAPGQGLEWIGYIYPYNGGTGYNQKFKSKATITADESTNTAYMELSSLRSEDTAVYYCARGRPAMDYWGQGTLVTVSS VL: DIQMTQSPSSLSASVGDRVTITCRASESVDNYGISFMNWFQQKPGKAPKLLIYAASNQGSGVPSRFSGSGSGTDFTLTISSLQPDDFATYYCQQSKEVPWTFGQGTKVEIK
3. Refmab #1 (antibody, human IgG1, V domains shown, Tested in IgG format; human IgG1 (Absolute Antibody hP67.6, Cat. No. Ab00283-10.0); also called hP67.6) VH: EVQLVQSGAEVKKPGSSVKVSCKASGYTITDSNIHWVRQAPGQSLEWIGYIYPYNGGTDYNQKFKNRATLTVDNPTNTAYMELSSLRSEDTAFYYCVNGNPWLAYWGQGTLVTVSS VL: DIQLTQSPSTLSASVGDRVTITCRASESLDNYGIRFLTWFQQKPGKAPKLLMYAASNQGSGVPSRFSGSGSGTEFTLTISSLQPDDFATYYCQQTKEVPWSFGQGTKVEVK

["0.5 % of WT", "109 % of WT", "101 % of WT"]
